Observable: melting point

>>> print(df.to_string())
                                   molecule         result
0  CCOP(=O)(OCC)C(CCc1cc(C)nc2cc(OC(=O)c3ccccc3)nn12)P(=O)(OCC)OCC    56 to 57 °C
1  CCOc1ccc(C2=NC(=O)C(C)(C(C)C)N2)nc1 (stereo not given)  143 to 145 °C
2      CC(=O)N1CCC2(CC1)CC(=O)c1c(O)cccc1O2  114 to 116 °C
3  CCCCc1cc2ccccc2c(Oc2ccc(/C=C/C(=O)O)cc2)c1-c1ccc(F)cc1  169 to 170 °C
4  CCOC(=O)C1CCc2c(C)c(O)c(C)c(C)c2O1 (stereo not given)  108 to 109 °C
5  CCOC(=O)C=CCCc1cn(C(c2ccccc2)(c2ccccc2)c2ccccc2)cn1    86 to 88 °C
6  Cc1c(CCc2ccc3[nH]c(N)nc3c2)ncn1C(c1ccccc1)(c1ccccc1)c1ccccc1  161 to 164 °C
7  CN1CCc2c(Br)sc(Br)c2C(c2ccccc2)C1 (stereo not given)          83 °C
8  COc1ccc(C(C)=NOCc2ccc([N+](=O)[O-])cc2)cc1F    67 to 68 °C
9         CCOC(=O)NNc1ccc(-c2ccc(Br)cc2)nn1  190 to 192 °C

// provenance: a melting point compilation (Tetko et al.; mined from patent text by program, amines drawn as free bases though some values may be those of a salt)
